testSystem: Tel-FGFR4 (Homo sapiens (Human), UniProt P22455)
Sequence (P22455 other isoform, or with tags, fused parts or gaps): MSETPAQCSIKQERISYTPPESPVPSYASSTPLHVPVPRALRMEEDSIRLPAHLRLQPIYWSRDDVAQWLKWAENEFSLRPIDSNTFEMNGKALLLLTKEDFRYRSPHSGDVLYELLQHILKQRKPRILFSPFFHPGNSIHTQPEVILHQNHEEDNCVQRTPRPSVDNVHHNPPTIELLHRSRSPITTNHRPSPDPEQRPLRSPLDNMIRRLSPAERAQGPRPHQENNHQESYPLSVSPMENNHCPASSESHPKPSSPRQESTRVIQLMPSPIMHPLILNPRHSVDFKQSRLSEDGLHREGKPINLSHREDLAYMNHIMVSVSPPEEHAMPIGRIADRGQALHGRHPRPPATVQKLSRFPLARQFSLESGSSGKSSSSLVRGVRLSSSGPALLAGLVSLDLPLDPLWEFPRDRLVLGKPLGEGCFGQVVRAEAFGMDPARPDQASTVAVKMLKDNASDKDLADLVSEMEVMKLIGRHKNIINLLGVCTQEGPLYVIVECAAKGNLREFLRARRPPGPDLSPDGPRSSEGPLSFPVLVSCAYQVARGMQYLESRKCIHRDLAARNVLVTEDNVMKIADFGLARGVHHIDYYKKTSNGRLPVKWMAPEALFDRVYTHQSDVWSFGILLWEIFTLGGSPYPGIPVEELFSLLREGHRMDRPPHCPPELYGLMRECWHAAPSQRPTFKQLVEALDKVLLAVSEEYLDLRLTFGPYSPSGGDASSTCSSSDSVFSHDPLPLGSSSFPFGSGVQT
procedureDetails: In vitro cellular kinase assay for FGFR4 (BaF3-Tel-FGFR4 cells, MSD capture ELISA of tyrosine phosphorylation)
Format: cell-based
testConditions: BaF3-Tel-FGFR4 cells, 1 hour incubation; read-out: Cellular BaF3 FGFR4 IC50
pIC50: −log10 of the molar value.

{"molecule": "COCCNc1cc(NC(=O)N2CCCc3cc(N4CCOC4=O)c(C=O)nc32)ncc1C#N", "pIC50": 7.96}
{"molecule": "O=Cc1nc2c(cc1CO)CCCN2C(=O)Nc1cc(O[C@H]2CCOC2)c(Cl)cn1", "pIC50": 7.24}
{"molecule": "COC(C)CNc1cc(NC(=O)N2CCCc3cc(CO)c(C=O)nc32)ncc1C#N (racemic)", "pIC50": 7.95}
{"molecule": "CN1CCN(Cc2cc3c(nc2C=O)N(C(=O)Nc2cc(NCCO)c(C#N)cn2)CCC3)C(=O)C1", "pIC50": 7.72}
{"molecule": "COCCNc1cc(NC(=O)N2CCCc3cc(CN4CC[C@H](O)C4=O)c(C=O)nc32)ncc1C#N", "pIC50": 8.28}
{"molecule": "CC(C)Oc1cc(NC(=O)N2CCCc3cc(C4CCNCC4)c(C=O)nc32)ncc1C#N", "pIC50": 7.06}
{"molecule": "COCCNc1cc(NC(=O)N2CCCc3cc(-n4ccnc4)c(C=O)nc32)ncc1C#N", "pIC50": 7.35}
{"molecule": "N#Cc1cnc(NC(=O)N2CCCc3cc(CO)c(C=O)nc32)cc1OC1CCOCC1", "pIC50": 7.44}
{"molecule": "COCCNc1cc(NC(=O)N2CCCc3cc(C4CCN(CC(F)F)CC4)c(C=O)nc32)ncc1C#N", "pIC50": 7.78}
{"molecule": "N#Cc1ccc(NC(=O)N2CCC(O)c3ccc(C=O)nc32)nc1 (racemic)", "pIC50": 6.71}
{"molecule": "CC(C)Oc1cc(NC(=O)N2CCCc3cc(CN(C)C(=O)CN(C)C)c(C=O)nc32)ncc1C#N", "pIC50": 7.82}
{"molecule": "COCCNc1cc(NC(=O)N2CCCc3cc(CO)c(C=O)nc32)ncc1C(F)(F)F", "pIC50": 7.47}
{"molecule": "N#Cc1cnc(NC(=O)N2CCCc3ccc(C=O)nc32)cc1C1=CCOCC1", "pIC50": 6.37}
{"molecule": "CN1CCN(Cc2cc3c(nc2C=O)N(C(=O)Nc2cc(NCCOS(=O)(=O)O)c(C#N)cn2)CCC3)C(=O)C1", "pIC50": 5.95}
{"molecule": "CC(=O)N(C)Cc1cc2c(nc1C=O)N(C(=O)Nc1cc(OCc3cccs3)c(C#N)cn1)CCC2", "pIC50": 7.71}
{"molecule": "COCCNc1cc(NC(=O)N2CCCc3cc(CN4CCN(C)C(C)(C)C4=O)c(C=O)nc32)ncc1C#N", "pIC50": 7.94}

----------
System: HuH-7 hepatocellular carcinoma cells
procedureDetails: CellTiter Glo (CTG) Assay
testConditions: Homo sapiens, Huh-7, 72 h, read-out: HUH7 proliferation (nM) CTG

{"compound": "COCCNc1cc(NC(=O)N2CCCc3cc(CN4CCS(=O)(=O)CC4=O)c(C=O)nc32)ncc1C#N", "unitsOfMeasure": "nM", "comparativeSign": "=", "IC50": 45.5}
{"compound": "CC(C)n1cnc2cnc(NC(=O)N3CCCc4cc(CN5CCN(C)CC5=O)c(C=O)nc43)cc21", "unitsOfMeasure": "nM", "comparativeSign": ">", "IC50": 3000}
{"compound": "COC(C)CNc1cc(NC(=O)N2CCCc3cc(CO)c(C=O)nc32)ncc1C#N (racemic)", "unitsOfMeasure": "nM", "comparativeSign": "=", "IC50": 436}
{"compound": "CCc1cc(NC(=O)N2CCCc3cc(C=O)c(C=O)nc32)ncc1C#N", "unitsOfMeasure": "nM", "comparativeSign": ">", "IC50": 3000}
{"compound": "CN1CCN(Cc2cc3c(nc2C=O)N(C(=O)Nc2cc(NCCOC(C)(C)C)c(C#N)cn2)CCC3)C(=O)C1", "unitsOfMeasure": "nM", "comparativeSign": "=", "IC50": 150}
{"compound": "COCCNc1cc(NC(=O)N2CCCc3cc(CN(CCN(C)C)C(C)=O)c(C=O)nc32)ncc1C#N", "unitsOfMeasure": "nM", "comparativeSign": "=", "IC50": 171}
{"compound": "CN1CCOC(CNc2cc(NC(=O)N3CCCc4cc(C(F)F)c(C=O)nc43)ncc2C#N)C1 (racemic)", "unitsOfMeasure": "nM", "comparativeSign": "=", "IC50": 200}
